Data provenance: patent US6399654B1

Quick reference for CC50 at 10 days among some molecules
# assay_name: in vitro
# cond: human, VZV Plaque Reduction CC50
# value in µg/mL; strip the unit string

[[record]]
molecule = "O=c1cc(-c2ccc(O)c(-c3c(O)cc(O)c4c(=O)cc(-c5ccc(O)cc5)oc34)c2)oc2cc(O)cc(O)c12 [Amentoflavone (1), amentoflavone]"
units = "µg/mL"
result = 9.3


// next entry
Request: Which CC50 at 10 days value belongs to O=c1cc(-c2ccc(Oc3c(O)cc4oc(-c5ccc(O)cc5)cc(=O)c4c3O)cc2)oc2cc(O)cc(O)c12 [Hinokiflavone (4), hinokiflavone] ?
Result: 16.8

----------
# assay_name: in vitro
# cond: African green monkey, Neutral Red IC50 (cytotoxic)
value_type: IC50 (µg/mL)
# value in µg/mL; strip the unit string

Request: Which IC50 value belongs to O=c1cc(-c2ccc(Oc3c(O)cc4oc(-c5ccc(O)cc5)cc(=O)c4c3O)cc2)oc2cc(O)cc(O)c12 [Hinokiflavone (4), hinokiflavone] ?
Result: 6

----------
Quick reference for CC50 at 3 days among some compounds
# assay_name: Cytotoxicity (CC50) in HFF cells in the herpes virus tests
# cond: human

[[record]]
compound = "COc1ccc(-c2cc(=O)c3c(OC)cc(OC)c(C4C(=O)c5c(OC)cc(OC)cc5OC4c4ccc(OC)cc4)c3o2)cc1 (stereo not shown) [Volkensiflavone hexamethyl ether (6), volkensiflavone hexamethyl ether]"
result = "> 100 µg/mL"

[[record]]
compound = "O=C1CC(c2ccc(O)cc2)Oc2cc(O)c(-c3c(O)cc(O)c4c3OC(c3ccc(O)cc3)CC4=O)c(O)c21 (stereo not shown) [Rhusflavanone (9), rhusflavanone]"
result = "> 100 µg/mL"

[[record]]
compound = "O=C1CC(c2ccc(O)cc2)Oc2cc(O)c(-c3c(O)cc4c(c3O)C(=O)CC(c3ccc(O)cc3)O4)c(O)c21 (stereo not shown) [Succedaneaflavanone (11), succedaneaflavanone]"
result = "60.7 µg/mL"


Request: Which CC50 at 3 days value belongs to O=c1cc(-c2ccc(O)c(-c3c(O)cc4oc(-c5ccc(O)cc5)cc(=O)c4c3O)c2)oc2cc(O)cc(O)c12 [Robustaflavone (3), robustaflavone] ?
Result: > 100 µg/mL

----------
Quick reference for EC50 among some compounds
# Tested on: Influenza A (H3N2) Beijing/32/92
# assay_name: microbe, parasite or virus in culture
# Assay type: cell-based, influenza A virus
# cond: Influenza A virus, MDCK; Influenza A (H3N2) Beijing/32/92; read-out: Neutral Red EC50
# value in µg/mL; strip the unit string

Solved entries:
[[record]]
compound = "O=C1CC(c2ccc(O)cc2)Oc2cc(O)c(-c3c(O)cc4c(c3O)C(=O)CC(c3ccc(O)cc3)O4)c(O)c21 (stereo not drawn)"
system_name = "Influenza A (H3N2) Beijing/32/92"
value_type = "EC50"
units = "µg/mL"
result = 12

[[record]]
compound = "O=c1cc(-c2ccc(Oc3c(O)cc4oc(-c5ccc(O)cc5)cc(=O)c4c3O)cc2)oc2cc(O)cc(O)c12"
system_name = "Influenza A (H3N2) Beijing/32/92"
value_type = "EC50"
units = "µg/mL"
result = 1.9


// next entry
Request: EC50, test system Influenza A (H3N2) Beijing/32/92, entry O=c1cc(-c2ccc(O)c(-c3c(O)cc4oc(-c5ccc(O)cc5)cc(=O)c4c3O)c2)oc2cc(O)cc(O)c12
Result: 1.8
